Value source: patent US20180193423A1

Target: T1, VPAC1 receptor (UniProt P32241 31-457, limits assumed)
T1 sequence (looked up): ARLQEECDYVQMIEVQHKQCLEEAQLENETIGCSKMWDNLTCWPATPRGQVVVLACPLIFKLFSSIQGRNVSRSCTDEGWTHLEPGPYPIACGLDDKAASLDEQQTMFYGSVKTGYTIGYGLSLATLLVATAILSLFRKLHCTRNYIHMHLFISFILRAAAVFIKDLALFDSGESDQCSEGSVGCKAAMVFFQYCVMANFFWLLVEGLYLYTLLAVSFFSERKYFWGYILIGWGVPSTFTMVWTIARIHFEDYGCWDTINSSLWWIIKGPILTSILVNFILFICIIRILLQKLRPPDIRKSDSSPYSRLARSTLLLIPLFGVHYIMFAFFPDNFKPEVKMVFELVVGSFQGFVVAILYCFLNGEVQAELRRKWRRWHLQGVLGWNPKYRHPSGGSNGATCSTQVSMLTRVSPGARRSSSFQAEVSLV
Assay: cell-based or functional assay
Primed or numbered codes have the meaning given here. Where no end group is shown, it is not given here. [ ]: non-standard residue; d: D form. APC″ = 3-aminopyrrolidine-4-carboxylic acid (cyclic β-amino acid); ACPC″ = 2-aminocyclopentanecarboxylic acid (x in the sequences); β3hY = N[C@H](CC(=O)O)Cc1ccc(O)cc1; β3hL = CC(C)C[C@H](N)CC(=O)O; β3hK = NCCCC[C@H](N)CC(=O)O; β3hV = CC(C)[C@H](N)CC(=O)O; βAla = NCCC(=O)O
What EC 50 vpac1 (Molar), cell-based cAMP assay was measured for each of the following?
Give the value in nM but do not write nM after it.

Look up EC 50 vpac1 (Molar), cell-based cAMP assay: Ac-H[ACPC″]DA[ACPC″]FTE[ACPC″][β3hY]TKLR[β3hK]QLAA[APC″]KY[ACPC″]NDL[β3hK]KG[βAla]T (not fully specified (C-terminus); printed as Ac-HxDAxFTExyTKLRkQLAAzKYxNDLkKGgT) [LBT-V219]
461

Same question, Ac-H[ACPC″]DA[β3hV]FTENYTK[β3hL]RKQLAA[APC″]KY[ACPC″]NDL[β3hK]KG[βAla]T (not fully specified (C-terminus); printed as Ac-HxDAvFTENYTKlRKQLAAzKYxNDLkKGgT) [LBT-V215] this time
1420
